Reference for the values: patent US20140178332A1

# target_system: T1, recombinant purified human IL-12 p70 (human, UniProt P29459 23-219)
# T1 construct: Disulfide-linked heterodimer of p35 and p40; also called hIL-12; Hu IL-12
# T1 sequence 1: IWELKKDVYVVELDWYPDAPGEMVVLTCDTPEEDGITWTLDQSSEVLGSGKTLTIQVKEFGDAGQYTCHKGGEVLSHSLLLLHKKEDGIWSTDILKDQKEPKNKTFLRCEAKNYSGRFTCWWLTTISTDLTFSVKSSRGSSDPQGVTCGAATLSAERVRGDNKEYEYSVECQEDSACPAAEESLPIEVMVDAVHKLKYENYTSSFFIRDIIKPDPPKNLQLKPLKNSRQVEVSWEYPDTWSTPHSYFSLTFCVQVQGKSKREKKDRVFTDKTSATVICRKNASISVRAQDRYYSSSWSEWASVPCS
# T1 sequence 2: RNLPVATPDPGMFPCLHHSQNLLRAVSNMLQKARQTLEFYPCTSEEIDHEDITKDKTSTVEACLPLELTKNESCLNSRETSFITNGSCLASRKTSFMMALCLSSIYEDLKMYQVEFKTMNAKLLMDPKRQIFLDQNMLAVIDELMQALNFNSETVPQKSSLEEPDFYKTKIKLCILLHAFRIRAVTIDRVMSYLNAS
# test_name: SPR (Biacore) according to Example 1.1.B
Entries and their pKd
# reply with the number alone; pKd is -log10 of concentration in mol/L

Below, each entry is followed by its recorded pKd result.
>  <binder>
additional humanized anti-IL-12 antibody 8E1.4 (antibody, IgG1, V domains shown, IgG1/kappa) VH: EVQLVESGGGLVQPGGSLRLSCAASGFTFSDYGMVWVRQAPGKGLEWVASISSGSSNIYYADTVKGRFTISRDNAKNTLYLQMNSLRAEDTAVYYCARNPYWGQGTLVTVSS VL: DIQMTQSPSSLSASVGDRVTITCKASQNVGTNVAWYQQKPGKAPKGLIYSASHRYSGVPSRFSGSGSGTDFTLTISSLQPEDFATYYCQQYNSYPLTFGGGTKVEIKR

>  <reported_property>
pKd

>  <meas_value>
8.89

$$$$
>  <binder>
additional humanized anti-IL-12 antibody 1A6.10 (antibody, human IgG1, V domains shown, Only variable domains tied to it) VH: EVTLRESGPGLVKPTQTLTLTCTLYGFSLSTSGMGVSWIRQPPGKGLEWLAHIWWDGDNYYNPSLKSQLTISKDTSKNQVVLKLTSVDPVDTATYYCARRTRVNYAMDYWGQGTLVTVSS VL: DIQMTQSPSSLSASVGDRVTITCKASQSVSNDVAWYQQKPGKAPKLLIYYASNRYTGVPDRFSGSGYGTDFTFTISSLQPEDIATYYCQQDYNSPWTFGGGTKVEIKR

>  <reported_property>
pKd

>  <meas_value>
10.62

$$$$
>  <binder>
additional humanized anti-IL-12 antibody 8E1.6 (antibody, V domains shown, IgG1/kappa, expressed in 293T/17 cells from pVg1.D.Tt (D356E L358M, L234A L235A) and pVk) VH: EVQLVESGGGLVQPGGSLRLSCAASGFTFSDYGMVWVRQAPGKGLEWVASISSGSSNIYYADTVKGRFTISRDDAKNTLYLQMNSLRAEDTAVYYCARNPYWGQGTLVTVSS VL: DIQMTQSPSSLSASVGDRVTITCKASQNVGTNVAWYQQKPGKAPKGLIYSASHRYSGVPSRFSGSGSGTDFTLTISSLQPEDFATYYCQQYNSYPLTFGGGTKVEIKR

>  <reported_property>
pKd

>  <meas_value>
10.34

$$$$

Now, please, on to the next binder.
Query string: Record request: pKd value, item additional humanized anti-IL-12 antibody 8E1.5 (antibody, IgG1, V domains shown, IgG1/kappa) VH: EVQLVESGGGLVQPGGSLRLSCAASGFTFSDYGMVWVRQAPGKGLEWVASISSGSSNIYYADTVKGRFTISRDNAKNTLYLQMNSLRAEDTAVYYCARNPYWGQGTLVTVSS VL: DIQMTQSPSSLSASVGDRVTITCKASQNVGTNVAWYQQKPGKAPKGLIYSASHRYSGVPDRFSGSGSGTDFTLTISSLQPEDFATYYCQQYNSYPLTFGGGTKVEIKR
Result string: 9.12
